Values from the RNAGym collection of RNA variant scans (doi:10.7554/elife.80360)

B1: Hairpin Ribozyme (parent)
chain: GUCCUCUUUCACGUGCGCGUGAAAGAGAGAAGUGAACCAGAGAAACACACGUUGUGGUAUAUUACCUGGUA

Variants of: B1
Assay: self-cleavage, relative activity (ratio to wild type); higher = more cleavage; co-transcriptional
Recorded measurements of self-cleavage, one per entry
Write no unit; give the number alone.

Some solved entries appear below for comparison.
[
  {
    "VARIANT_STRING": "A11G U33A",
    "self-cleavage": 0.0249
  },
  {
    "VARIANT_STRING": "C4U A35U",
    "self-cleavage": 0.199
  },
  {
    "VARIANT_STRING": "A36G C46G",
    "self-cleavage": 0.178
  }
]

Per the records, this variant ( U52G U63C ) has self-cleavage equal to 0.0944

The variant identified as G13A G15U registered its self-cleavage at 1.1

Form field self-cleavage, entry U2C U8A : 0.191

Item: G19C A23G | self-cleavage: 0.611

self-cleavage in this record for A24G A59U : 0.153
